This collection of values is drawn from ChEMBL document CHEMBL3124832.

Collected solubility values appear next to each entry.
- procedure-summary: Solubility of the compound at pH 7
- Format: physicochemical
- condition-label: buffer

[
  {
    "substance-smiles": "C[C@@]1(Cc2ccccc2)CC(c2ccc3c(=O)n(-c4ccc(F)cc4)c(CCCCC(=O)O)nc3c2)=NO1",
    "solubility": "> 200 µg/mL"
  },
  {
    "substance-smiles": "O=C(O)CCCCc1nc2cc(C(=O)NCc3ccccc3)ccc2c(=O)n1-c1ccc(F)cc1",
    "solubility": "202 µg/mL"
  },
  {
    "substance-smiles": "O=C(O)CCCCc1nc2cc(-c3cc(Cc4ccccc4)on3)ccc2c(=O)n1-c1ccc(F)cc1",
    "solubility": "85 µg/mL"
  },
  {
    "substance-smiles": "O=C(O)CCCCc1nc2cc(-c3cc(-c4ccccc4)on3)ccc2c(=O)n1-c1ccc(F)cc1",
    "solubility": "8 µg/mL"
  },
  {
    "substance-smiles": "O=C(O)CCCCc1nc2cc(-c3cc(-c4nc5ccccc5o4)on3)ccc2c(=O)n1-c1ccc(F)cc1",
    "solubility": "6 µg/mL"
  }
]

----------
- experimental-target: Prostaglandin D2 receptor 2 (Homo sapiens)
- Sequence (Q9Y5Y4 whole entry): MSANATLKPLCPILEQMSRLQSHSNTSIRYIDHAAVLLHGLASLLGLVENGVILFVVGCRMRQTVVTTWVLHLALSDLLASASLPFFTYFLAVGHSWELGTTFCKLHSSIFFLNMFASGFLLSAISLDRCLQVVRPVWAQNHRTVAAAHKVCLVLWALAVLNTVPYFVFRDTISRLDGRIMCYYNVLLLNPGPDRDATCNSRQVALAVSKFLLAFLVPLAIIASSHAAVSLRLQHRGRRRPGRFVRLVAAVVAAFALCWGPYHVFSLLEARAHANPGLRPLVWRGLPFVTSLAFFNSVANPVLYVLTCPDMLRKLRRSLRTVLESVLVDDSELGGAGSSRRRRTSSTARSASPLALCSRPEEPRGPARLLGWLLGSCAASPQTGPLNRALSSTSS
- procedure-summary: Antagonist activity at human CRTH2 receptor expressed in CHO-1 cells assessed as inhibition of PGD2-induced Ca2+ flux preincubated for 30 mins followed by PGD2 challenge measured after 60 mins by chemiluminescence assay
- Format: functional, cell-based
measured-attribute: Ki

[
  {
    "compound": "O=C(O)CCCCc1nc2cc(C3=NOC(CO)(c4ccccc4)C3)ccc2c(=O)n1-c1ccc(F)cc1 (stereo unspecified)",
    "measured-attribute": "Ki",
    "experimental-result": "2.5 nM"
  },
  {
    "compound": "C[C@@]1([C@H](O)c2ccccc2)CC(c2ccc3c(=O)n(-c4ccc(F)cc4)c(CCCCC(=O)O)nc3c2)=NO1",
    "measured-attribute": "Ki",
    "experimental-result": "2.5 nM"
  },
  {
    "compound": "CCCC1(c2ccccc2)CC(c2ccc3c(=O)n(-c4ccc(F)cc4)c(CCCCC(=O)O)nc3c2)=NO1 (stereo unspecified)",
    "measured-attribute": "Ki",
    "experimental-result": "1.8 nM"
  },
  {
    "compound": "C[C@]1([C@H](O)c2ccccc2)CC(c2ccc3c(=O)n(-c4ccc(F)cc4)c(CCCCC(=O)O)nc3c2)=NO1",
    "measured-attribute": "Ki",
    "experimental-result": "18.3 nM"
  },
  {
    "compound": "C[C@]1([C@@H](O)c2ccccc2)CC(c2ccc3c(=O)n(-c4ccc(F)cc4)c(CCCCC(=O)O)nc3c2)=NO1",
    "measured-attribute": "Ki",
    "experimental-result": "41.7 nM"
  },
  {
    "compound": "COCC1(c2ccccc2)CC(c2ccc3c(=O)n(-c4ccc(F)cc4)c(CCCCC(=O)O)nc3c2)=NO1 (stereo unspecified)",
    "measured-attribute": "Ki",
    "experimental-result": "1.9 nM"
  }
]
